Overview of recorded melting point for various compounds
EXPERIMENTAL_ENDPOINT: melting point

[
  {
    "COMPOUND": "CC(=O)NS(=O)(=O)c1ccccc1NC(=O)c1cccc(OCc2ccc(C(C)(C)C)cc2)c1 [Example 29]",
    "EXPERIMENTAL_ENDPOINT": "melting point",
    "READING": "190 to 191 °C"
  },
  {
    "COMPOUND": "CCCCCCCCCC(=O)NS(=O)(=O)c1ccccc1NC(=O)c1cccc(OCc2ccccc2)c1 [Example 9]",
    "EXPERIMENTAL_ENDPOINT": "melting point",
    "READING": "85 to 86 °C"
  },
  {
    "COMPOUND": "CCCCCCCOc1cccc(C(=O)Nc2ccccc2S(=O)(=O)NC(=O)CCCCC)c1 [Example 36]",
    "EXPERIMENTAL_ENDPOINT": "melting point",
    "READING": "200 to 201 °C"
  },
  {
    "COMPOUND": "C/C=C/C=C/C(=O)NS(=O)(=O)c1ccccc1NC(=O)c1ccc(C#Cc2ccccc2)cc1 [Example 43]",
    "EXPERIMENTAL_ENDPOINT": "melting point",
    "READING": "208 to 209 °C"
  },
  {
    "COMPOUND": "O=C(Nc1ccccc1S(=O)(=O)NC(=O)c1ccc([N+](=O)[O-])cc1)c1cccc(OCc2ccccc2)c1 [Example 5]",
    "EXPERIMENTAL_ENDPOINT": "melting point",
    "READING": "233 to 234 °C"
  },
  {
    "COMPOUND": "CCCCCC(=O)NS(=O)(=O)c1ccccc1NC(=O)c1cccc(OCc2ccccc2)c1 [Example 8]",
    "EXPERIMENTAL_ENDPOINT": "melting point",
    "READING": "133 to 134 °C"
  },
  {
    "COMPOUND": "CC(=O)NS(=O)(=O)c1ccccc1NC(=O)c1cccc(OCc2ccccc2)c1 [Example 3]",
    "EXPERIMENTAL_ENDPOINT": "melting point",
    "READING": "195 to 196 °C"
  },
  {
    "COMPOUND": "COc1ccc(C(=O)NS(=O)(=O)c2ccccc2NC(=O)c2cccc(OCc3ccccc3)c2)cc1 [Example 6]",
    "EXPERIMENTAL_ENDPOINT": "melting point",
    "READING": "189 to 190 °C"
  },
  {
    "COMPOUND": "CCCCCC(=O)NS(=O)(=O)c1ccccc1NC(=O)c1cccc(OCc2ccc([N+](=O)[O-])cc2)c1 [Example 21]",
    "EXPERIMENTAL_ENDPOINT": "melting point",
    "READING": "138 to 141 °C"
  },
  {
    "COMPOUND": "CC(C)(C)C(=O)NS(=O)(=O)c1ccccc1NC(=O)c1ccc(C#Cc2ccccc2)cc1 [Example 41]",
    "EXPERIMENTAL_ENDPOINT": "melting point",
    "READING": "236 to 237 °C"
  }
]
